Numbers sourced from patent US20030148956A1.

Exercise: for every item that follows, state its recorded CRF1R EC50.
molecular target: CRF1R; experiment: cell-based or functional assay
Ends that are not written are not given here.

Q: Quick check: CRF1R EC50 of IVLSLDVPIGLLQILLEQEKQEAAREQATTNARILARV-NH2 [SEQ ID NO 125] ?
Ans: > 100 nM

Q: Quick check: CRF1R EC50 of IVLSLDVPIGLLQILLEQTRARAAREQATTNARILARV-NH2 [SEQ ID NO 128] ?
Ans: > 100 nM

Q: Quick check: CRF1R EC50 of ZGPPISIDLPTELLRKMIEIEKQEKEKQQAANNRLLLDTI (C-terminal amide) [SEQ ID NO 71] ?
Ans: > 100 nM
